Values from PubChem BioAssay (NCI)

system: SF-268 CNS; test: NCI tumour cell line growth inhibition, 48 h
REPORTED_ENDPOINT: TGI (µM)

C=C(CS(=O)(=O)c1ccccc1)[P+](c1ccccc1)(c1ccccc1)c1ccccc1    29.6
O=[N+]([O-])c1cccc2nc3ccccc3c(NCCCN3CCOCC3)c12    0.744
Cc1cccc2c(N)c3cccc(C(=O)NCCN(C)C)c3nc12    2.41
CCCCN(CCCC)CCCCNc1c(C)cnc2cc(Cl)ccc12    85.3
CCOc1ccc(/C=C/[N+](=O)[O-])cc1    28.6
COc1c(CNC(=O)CCl)cc2[nH]c(C)cc2c1CNC(=O)CCl    21.7
N#Cc1c(-c2ccccc2)cc(-c2ccccc2)n(CCCCC(=O)NO)c1=O    7.9
CC(=O)OC[C@]12CC[C@@H]([C@@H](C)C(N)=O)[C@@H]1[C@H]1CC[C@@H]3[C@@]4(C)CC[C@H](OC(C)=O)C(C)(C)[C@@H]4CC[C@@]3(C)[C@]1(C)CC2    22.3
CCOc1ccc(N=Nc2ccc3oc(=O)c(C(=O)Nc4ccc(OC)cc4)cc3c2)cc1    78.4
COc1cc(C2CC(c3cc(C)ccc3C)=NN2c2ccc(S(=O)(=O)NC(=O)NCc3ccccc3)cc2)cc(OC)c1OC (centres undefined)    34.8
CCCCN(CCCC)CCCN=c1nc2c(c(N)n1-c1ccccc1)c(=S)n(-c1ccccc1)c(=S)n2-c1ccccc1    2.47
C#CCNC(=O)CC[C@]1(C)[C@H]2CC[C@@H]3[C@@H]([C@@](C)(O)CCC=C(C)C)CC[C@@]3(C)[C@]2(C)CC[C@H]1C(=C)C    57.1
c1ccc2sc(C3(N4CCCCC4)CCCCCC3)cc2c1    46.7
CNC(C)C(=O)N[C@H](C(=O)N1CCC[C@@H]1CN(CCc1ccccc1)C(=O)C(F)(F)F)[C@H](C)OCC#CC#CCO[C@H](C)[C@H](NC(=O)[C@H](C)NC)C(=O)N1CCC[C@H]1CN(CCc1ccccc1)C(=O)C(F)(F)F (some centres undefined)    3.57
CC1(C)CC2C=C(C=O)C3(C=O)CC3(C)C2C1 (centres undefined)    6.02
CC(/C=C/c1ccc([N+](=O)[O-])o1)=N/N1CC(CN2CCOCC2)OC1=O (centres undefined)    51.9

---

system: ACHN renal; experiment: NCI tumour cell line growth inhibition, 48 h
REPORTED_ENDPOINT: TGI

N#CC(C#N)=CSc1ccccc1    > 100 µM
COc1c2c(cc3c(CCc4ccccc4)cc(=O)oc13)CCC(C)(C)O2    > 100 µM
Nc1nc(NNc2ccc(Cl)c(Cl)c2)cc(=O)[nH]1    > 100 µM
CCn1c(=O)ccc2ccc(N(CCO)CCO)nc21    > 100 µM
NCC(NC(=O)OCc1ccccc1)C(=O)O (stereo not drawn)    > 50 µM
O=C1C(Cl)=C(Nc2cccc(O)c2)C(=O)N1c1ccc(Cl)c(Cl)c1    33.3 µM
CC(C)(C)OC(=O)NC(Cc1cnc[nH]1)C(=O)N1CCCC1C(N)=O (stereo not drawn)    > 100 µM
CCCCN(CCCC)CCCN=c1nc2c(c(N)n1-c1ccccc1)c(=S)n(-c1ccccc1)c(=S)n2-c1ccccc1    1.8 µM
COC(=O)[C@@]1(C)CC[C@]2(C)CC[C@]3(C)C4=CC=C5C(=CC(=O)C(O)=C5C)[C@]4(C)CC[C@@]3(C)[C@@H]2C1    0.29 µM
O=C(O)CCCCn1cnc2c(=S)nc[nH]c21    > 100 µM
COC(=O)C1C2C=CC(C2)N1S(=O)(=O)c1ccccc1 (stereo not drawn)    > 100 µM
CC1C/C(=N\N(C)C)C(C#N)(C#N)C1(C#N)C#N (stereo not drawn)    23.1 µM
Oc1cc(O)c2c(=S)cc(-c3ccc(Cl)cc3)oc2c1    11.1 µM
CN(C)CCNC(=O)c1cccc2nc3cccc(F)c3nc12    3.56 µM
NC(=S)N1N=C2c3ccccc3CC[C@H]2[C@@H]1c1cccs1    > 100 µM
CC(=O)OC(C)(C)N=Nc1ccc(Br)cc1    23.1 µM
Cc1cc(-c2nc(-c3ccc(OC(F)(F)F)cc3)no2)nn1Cc1ccnc(N2CCN(C3CC3)CC2)c1    > 100 µM
O=C1c2nn(-c3ccccc3)nc2C(c2ccccc2)N1c1ccccc1 (stereo not drawn)    > 100 µM
